Reported Kd by item:
molecular target: T1, rhIL-21-His (AB235875-1001, Abcam) (human, UniProt Q9HBE4 30-162); assay: SPR, Fab on captured rhIL-21-His
T1 construct: bought; not shown: His tag, length and position not described
T1 sequence (Q9HBE4 30-162 limits assumed): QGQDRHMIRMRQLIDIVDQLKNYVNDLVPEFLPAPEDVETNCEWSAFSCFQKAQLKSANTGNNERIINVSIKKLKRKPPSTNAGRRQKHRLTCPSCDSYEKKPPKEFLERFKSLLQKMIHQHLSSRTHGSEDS

Example results:
CLJ397 Fab (Fab, V domains shown, Fab) VH: QVQLQESGPGLVKPSETLSLTCTVSGGSISSDYWGWIRQPPGKGLEWIGYISYRGSTNYNPSLKSRVTISVDTSRNQFSLKLSSVTAADTAVYYCARSAGVADFDAWGQGTLVTVSS VL: DIQLTQSPSSVSASVGDRVTITCRASQGISSWLAWYQHKPGKAPKLLIYVASSLQSGVPSRFSGSGSGTDFTLTISSLQPEDFATYYCQQASSFPLTFGGGTKVEIK
0.55 nM
RPD212 Fab (Fab, V domains shown, Fab) VH: QVQLQESGPGLVKPSETLSLTCTVSGGSISSDYWGWIRQPPGKGLEWIGYISYSGSTNYNPSLKSRVTISVDTSRNQFSLKLSSVTAADTAVYYCARSAGVTDFDAWGQGTLVTVSS VL: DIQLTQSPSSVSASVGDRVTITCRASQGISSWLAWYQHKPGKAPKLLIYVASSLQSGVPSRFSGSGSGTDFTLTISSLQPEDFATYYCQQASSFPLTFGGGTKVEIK
1.1 nM

Turning now to a further record.
Form field Kd, entry EJT070 Fab (Fab, V domains shown, Fab) VH: QVQLQESGPGLVKPSETLSLTCTVSGGSISSDYWGWIRQPPGKGLEWIGYISYSGSTNYNPSLKSRVTISVDTSRNQFSLKLSSVTAADTAVYYCARSAGVADFDFWGQGTLVTVSS VL: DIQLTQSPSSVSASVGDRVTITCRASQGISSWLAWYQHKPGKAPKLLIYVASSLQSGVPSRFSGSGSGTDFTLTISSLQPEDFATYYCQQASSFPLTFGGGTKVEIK : 0.82 nM
